Value source: patent US9540371B2

# TEST_TARGET: UniProt P11229
# ASSAY_COMMENT: mAChR M1 cell-based functional assay (calcium mobilization, PAM mode)
# CONDITION_INFO: calcium flux in CHO-K1 cells expressing mAChR M1; increase in the EC20 acetylcholine response; >10 μM estimated where no plateau but >20% increase in ACh response
TEST_READOUT: EC50 (µM)

P = Cn1cc2c(-c3cc(F)c(Cn4cnc5cnccc5c4=O)c(F)c3)cccc2n1 [Compound B7]
Q = Cn1cc(-c2ccc(Cn3cnc4cnccc4c3=O)cc2)cn1 [Compound B9]
INPUT: Higher EC50 between P and Q ? Returns: label corresponding to the selected item.
OUTPUT: Q

###

# TEST_TARGET: mAChR M1 (UniProt P11229)
# Sequence (P11229 1-460): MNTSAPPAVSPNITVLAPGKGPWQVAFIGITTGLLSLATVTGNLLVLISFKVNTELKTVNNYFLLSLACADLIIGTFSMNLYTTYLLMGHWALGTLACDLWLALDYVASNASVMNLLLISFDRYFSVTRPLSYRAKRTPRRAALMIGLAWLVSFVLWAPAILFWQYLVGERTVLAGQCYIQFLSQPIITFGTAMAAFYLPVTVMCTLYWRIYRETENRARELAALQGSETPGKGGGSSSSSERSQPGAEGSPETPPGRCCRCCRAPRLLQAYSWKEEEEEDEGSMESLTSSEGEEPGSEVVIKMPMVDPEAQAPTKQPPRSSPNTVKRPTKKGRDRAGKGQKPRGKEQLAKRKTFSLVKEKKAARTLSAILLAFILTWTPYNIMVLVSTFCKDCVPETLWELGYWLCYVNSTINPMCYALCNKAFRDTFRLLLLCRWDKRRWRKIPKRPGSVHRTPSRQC
# ASSAY_COMMENT: mAChR M1 cell-based functional assay (calcium mobilization, PAM mode)
# CONDITION_INFO: calcium flux in CHO-K1 cells expressing mAChR M1; increase in the EC20 acetylcholine response; >10 μM estimated where no plateau but >20% increase in ACh response
pEC50: −log10 of the molar value.
Entries and their measured pEC50 follow.

Cn1cc2c(-c3cc(F)c(Cn4cnc5cccnc5c4=O)c(F)c3)cccc2n1 = 5.44

INPUT: Please report pEC50 with mAChR M1 (UniProt P11229) for item Cn1cc(-c2ccc(Cn3cnc4ccccc4c3=O)cc2)cn1 .
OUTPUT: < 5.00

INPUT: Please report pEC50 with mAChR M1 (UniProt P11229) for item Cn1cc(-c2ccc(Cn3cnc4cccnc4c3=O)cc2)cn1 .
OUTPUT: < 5.00

INPUT: Please report pEC50 with mAChR M1 (UniProt P11229) for item O=c1c2ccncc2ncn1Cc1ccc(-n2cccn2)cc1 .
OUTPUT: < 5.00

INPUT: Please report pEC50 with mAChR M1 (UniProt P11229) for item O=c1c2ccccc2ncn1Cc1ccc(-n2cccn2)cc1 .
OUTPUT: < 5.00

###

# TEST_TARGET: mAChR M1 (UniProt P11229)
# Sequence (P11229 1-460): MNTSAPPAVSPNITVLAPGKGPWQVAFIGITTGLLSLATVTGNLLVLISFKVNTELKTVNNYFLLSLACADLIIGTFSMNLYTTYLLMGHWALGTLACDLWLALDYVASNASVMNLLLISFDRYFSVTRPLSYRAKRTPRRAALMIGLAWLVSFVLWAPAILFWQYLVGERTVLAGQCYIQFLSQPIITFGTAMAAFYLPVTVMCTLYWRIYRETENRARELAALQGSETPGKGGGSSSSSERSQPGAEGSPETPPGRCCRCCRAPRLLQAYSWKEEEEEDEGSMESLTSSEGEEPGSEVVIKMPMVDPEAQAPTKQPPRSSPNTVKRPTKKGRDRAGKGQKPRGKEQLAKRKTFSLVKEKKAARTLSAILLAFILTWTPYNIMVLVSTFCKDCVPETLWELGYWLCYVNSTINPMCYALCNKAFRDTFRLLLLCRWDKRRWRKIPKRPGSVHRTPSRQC
# ASSAY_COMMENT: mAChR M1 cell-based functional assay (calcium mobilization, PAM mode)
# CONDITION_INFO: calcium flux in CHO-K1 cells expressing mAChR M1; increase in the EC20 acetylcholine response; >10 μM estimated where no plateau but >20% increase in ACh response
Entries and their measured EC50 follow.

Consider the worked cases shown below.
Cn1cc(-c2ccc(Cn3cnc4ncccc4c3=O)cc2)cn1 [Compound B6] = > 10 µM
O=c1c2cccnc2ncn1Cc1ccc(-n2cccn2)cc1 [Compound B5] = > 10 µM

Turning now to a further record.
INPUT: Please report EC50 with mAChR M1 (UniProt P11229) for item O=c1c2ncccc2ncn1Cc1ccc(-n2cccn2)cc1 [Compound B10] .
OUTPUT: > 10 µM
